Numbers sourced from PubChem BioAssay AID1259415.

Assay: qHTS Assay for inhibitors of the human cytomegalovirus (HCMV); also: % is scaled to controls: 0 for no effect and ±100 for the full control effect
Conditions: HFF cells, HCMV-luciferase reporter, 72 h; at 57.5 µM; active compounds read low
The whole screen tested about 410,000 compounds, of which about 18,000 (4.4%) were called active. About 7% were inconclusive and are not listed. The sample as a whole holds a higher share of actives than the screen did.
I'd appreciate it if you marked entries label 1 when activity change, negative = inhibition is lower than -30% and label 0 when it is not.

Cn1c(SCC(=O)N2CCCc3ccccc32)ncc(C(=O)Nc2ccc(F)cc2)c1=O ... label 0
CC(=O)N1CCCc2cc(S(=O)(=O)Nc3ccc(Cl)cc3F)ccc21 ... label 0
COc1cccc(CNC(=O)C(NS(=O)(=O)c2ccc3nc(C)sc3c2)C(C)C)c1 (stereo not given) ... label 0
O=C(c1ccc(C(F)(F)F)cc1)N1CCC(c2nc(-c3ccc(S(=O)(=O)N4CCCC4)cc3)no2)CC1 ... label 1

Here is the next item to consider.
-- ask Answer whether the compound O=C(c1ccc(N2CCOCC2)c([N+](=O)[O-])c1)N1CCN(S(=O)(=O)c2cccs2)CC1 has activity change, negative = inhibition strictly less than -30%
-- reply label 0

###

Assay: qHTS Assay for inhibitors of the human cytomegalovirus (HCMV); also: % is scaled to controls: 0 for no effect and ±100 for the full control effect
Settings: HFF cells, HCMV-luciferase reporter, 72 h; at 57.5 µM; active compounds read low
The whole screen tested about 410,000 compounds, of which about 18,000 (4.4%) were called active. Roughly 7% stayed inconclusive and do not appear here. Only a selection was taken, and actives are over-represented in it overall.
Criterion: activity change, negative = inhibition strictly under -60%. Met: true. Not met: false.

O=C(c1ccco1)N(Cc1nc2ccccc2c(=O)[nH]1)C1CCCC1 ... false
CN(c1ccc2nc3ccccc3c(=O)n2n1)C1CCCCC1 ... true
COC(=O)c1ccc(Nc2ncnc3sccc23)cc1 ... true
COC(=O)c1ccc(-c2nc3cc(NC(C)=O)ccc3o2)cc1 ... false

-- ask hey, is activity change, negative = inhibition for Cc1cc(C)n(-c2nc(SCC(=O)N3CCCC3)c3c4c(sc3n2)CCCC4)n1 lower than -60% or not?
-- reply true

-- ask Similarly, O=S(=O)(Nc1ncnc2sccc12)c1cccc(F)c1 ?
-- reply false

###

Assay: qHTS Assay for inhibitors of the human cytomegalovirus (HCMV); also: % is scaled to controls: 0 for no effect and ±100 for the full control effect
Settings: HFF cells, HCMV-luciferase reporter, 72 h; at 57.5 µM
Experimental: NCGC Assay Overview: Infection with human cytomegalovirus (HCMV) continues to pose significant threats for pregnant women and immunocompromised hosts. […] This is a cell-based assay for HCMV inhibition in HFFs cells. […] At 72 h post infection cell lysates were collected and luciferase activity was determined using the Glomax-Multi + Detection System (Promega, Madison, WI). […]
Out of some 410,000 compounds screened, about 18,000 (4.4%) were called active. Roughly 7% stayed inconclusive and do not appear here. No stated cut-off is given here; in the data, active means activity change below about -60%; inconclusive means no clear call, values can overlap the other calls; inactive means above about -39%. This excerpt belongs to a sample that is enriched for actives.
Lab note: assign the record to one of 1.0 = active, 0.0 = inactive

Field: example entries. Status: answers known.
CC1CCCCC1NC(=O)COC(=O)Cc1ccc(Cl)cc1 (stereo not given) ... 0.0
CCSc1nnc2c(n1)OC(c1ccc(OCC(=O)O)cc1)Nc1ccccc1-2 (stereo not given) ... 0.0

-- ask Could you please tell me the result logged for CC1(C)CC(N2CCN(C(c3ccccc3)c3ccccc3)CC2)=CC(=[N+]2CCCCC2)C1 in this assay?
-- reply 1.0

-- ask Same thing, different compound: CCCCOC(=O)CSc1ncnc2sc3c(c12)CCC(C)C3 (stereo not given)
-- reply 0.0

-- ask Next entry: Cc1c(Cl)cccc1NC(=O)Cn1cc(C(=O)c2cccs2)c2ccccc21
-- reply 1.0

-- ask Now consider COc1cc(Cl)cc(C2NC(=O)NC(C)=C2C(=O)NCc2ccccc2)c1O (stereo not given) and answer again.
-- reply 0.0

-- ask For Cc1ccc(N(CC(=O)NC2CCCCC2)C(=O)CCCC(=O)Nc2ccccn2)c(C)c1 then?
-- reply 0.0

-- ask Field entry: CC12CCC3C(CCC4CC(=O)CCC43C)C1CC(=NO)C2=O (stereo not given)
-- reply 0.0

-- ask How about CCOC(=O)c1cc(-c2ccccc2)n(CCC(=O)Nc2ccccc2CC)c1C ?
-- reply 0.0

-- ask And for Cc1ccccc1NC(=O)Cn1c(=O)n(CCCCC(=O)NCc2ccccc2Cl)c(=O)c2ccccc21 ?
-- reply 0.0

-- ask Can you handle CCc1ccccc1NC(=O)Cn1c(=O)n(-c2cccc(C)c2)c(=O)c2c1c1cc(OC)ccc1n2C next?
-- reply 0.0

-- ask Same question for COc1ccc(F)c(-c2nc(CN3CCC(c4ccccc4)CC3)c(C)o2)c1 please.
-- reply 0.0

-- ask Proceed to Cc1nonc1C1CCCN1Cc1nc(-c2ccc(F)cc2F)oc1C (stereo not given)
-- reply 1.0

-- ask Another compound to look at: O=C(NC1CC(=O)N(c2ccc(F)cc2)C1)c1ccc(S(=O)(=O)N2CCCC2)cc1 (stereo not given)
-- reply 0.0

-- ask Now consider Cc1ccc(CNC(=O)c2c(O)nc3c(C)cccn3c2=O)cc1 and answer again.
-- reply 0.0

-- ask Same for CC(C)c1ccc(C2CC(=O)N3CN(C4CCCCC4)CSC3=C2C#N)cc1 (stereo not given)
-- reply 0.0

-- ask What do we get for Cc1ccc(NC(=O)C(Cc2ccccc2)NS(=O)(=O)c2ccc3c(c2)oc(=O)n3C)cc1C (stereo not given) ?
-- reply 0.0

-- ask What do you have for COc1cccc2c1cc1c(=O)n(CC(=O)N3CCN(c4cccc(Cl)c4)CC3)nc(C)n12 ?
-- reply 0.0

-- ask Here is the next compound: Cc1ccc(Cn2c(=O)n(CCCC(=O)NCc3ccccc3Cl)c(=O)c3ccccc32)cc1
-- reply 0.0

-- ask Same read-out for CCOC(=O)c1c(SCC(=O)Nc2cccc(C)c2C)nc(=O)[nH]c1C ?
-- reply 0.0

-- ask Try the compound COc1cc(/C=C2/SC(=S)N(Cc3ccccc3)C2=O)cc(OC)c1O
-- reply 1.0

-- ask What do you have for COc1ccc(Cn2c(C(=O)O)c(CNCc3cccc(OC)c3)c3ccc(C)cc32)cc1 ?
-- reply 1.0

-- ask Now the compound Cc1ccc(Cl)cc1N1CCN(S(=O)(=O)c2cc3[nH]c(=O)c(=O)[nH]c3cc2C)CC1
-- reply 0.0
